- target-entity: T1, human MSLN-R2-his protein (human, UniProt Q13421 391-486)
- T1 construct: also called human MSLN-R2 protein; hMSLN-R2-his; not shown: His tag
- T1 sequence (Q13421 other isoform, or with tags, fused parts or gaps): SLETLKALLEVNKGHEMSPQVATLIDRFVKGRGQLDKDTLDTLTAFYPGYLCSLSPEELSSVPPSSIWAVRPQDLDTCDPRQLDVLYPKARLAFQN
- experiment: ELISA, coated antigen; antibody 0.1 nM
quantity-measured: OD450 (OD450)
Kindly answer with a numeric value in OD450, unit omitted.

Example entries and their recorded answers appear below.
S009-F3.74.20 (antibody, human IgG1, kappa, V domains shown, Human-murine chimeric antibody, human IgG1/kappa constant regions) VH: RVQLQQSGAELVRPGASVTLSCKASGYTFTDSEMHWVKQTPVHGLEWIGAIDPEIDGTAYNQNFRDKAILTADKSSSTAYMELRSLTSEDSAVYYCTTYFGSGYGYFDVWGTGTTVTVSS VL: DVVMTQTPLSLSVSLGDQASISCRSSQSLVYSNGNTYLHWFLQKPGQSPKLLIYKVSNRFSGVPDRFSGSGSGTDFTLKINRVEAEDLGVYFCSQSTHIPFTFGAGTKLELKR    0.06
S009-F3.80.22 (antibody, human IgG1, kappa, V domains shown, Human-murine chimeric antibody, human IgG1/kappa constant regions) VH: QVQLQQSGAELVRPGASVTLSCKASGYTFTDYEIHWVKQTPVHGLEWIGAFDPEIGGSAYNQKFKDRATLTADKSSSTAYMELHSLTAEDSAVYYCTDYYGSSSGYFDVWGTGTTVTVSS VL: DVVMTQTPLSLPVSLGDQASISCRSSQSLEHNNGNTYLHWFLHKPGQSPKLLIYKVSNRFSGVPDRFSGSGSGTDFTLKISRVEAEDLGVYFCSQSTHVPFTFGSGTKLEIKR    0.06

Then this binder:
input: Given the binder S009-F3.16.1 (antibody, human IgG1, kappa, V domains shown, Human-murine chimeric antibody, human IgG1/kappa constant regions) VH: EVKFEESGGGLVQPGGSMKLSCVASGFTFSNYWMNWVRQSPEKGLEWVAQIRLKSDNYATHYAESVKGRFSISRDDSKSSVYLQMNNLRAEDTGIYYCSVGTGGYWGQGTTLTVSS VL: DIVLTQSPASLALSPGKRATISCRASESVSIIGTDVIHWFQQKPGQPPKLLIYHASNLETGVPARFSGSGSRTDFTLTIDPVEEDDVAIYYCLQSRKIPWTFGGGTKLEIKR , what is its reported OD450?
output: 0.18
